Please go through the items and note down their growth at 1 µM.
tested on: MDA-MB-468; assay: Antiproliferative activity against human MDA-MB-468 cells assessed as cell growth at 1 uM incubated for 3 days by 3H-thymidine incorporation assay relative to control; format: functional; conditions: read-out: Activity
One number for each entry, in %.

Answered cases to consult:
smiles-text	growth at 1 µM (%)
COc1ccc(NC(=O)c2sc3nc4c(cc3c2N)CCCCC4)cc1OC	77
Nc1c(C(=O)Nc2cccc(Br)c2)sc2nc3c(cc12)CCC3	53
Cc1cccc(NC(=O)c2sc3nc4c(cc3c2N)CCCCCC4)c1C	4

For every item in the list below, what is its measured growth at 1 µM?
1. Cc1c(Cl)cccc1NC(=O)c1sc2nc3c(cc2c1N)CCCCC3
2. Nc1c(C(=O)Nc2ccccc2)sc2nc3c(cc12)CCCC3

Marked response:
1. 3
2. 8

====

assay: Antiproliferative activity against human HCT116 cells assessed as cell growth at 1 uM incubated for 3 days by 3H-thymidine incorporation assay relative to control; assay type: functional; settings: HCT-116, read-out: Activity
quantity-kind: growth at 1 µM
Report the figure along with its unit, number first.

smiles-text	growth at 1 µM
Cc1cccc(NC(=O)c2cc3cc4cc(C)ccc4nc3s2)c1	100%
CCOc1ccc2nc3sc(C(=O)Nc4ccc(C(C)=O)cc4)c(N)c3cc2c1	96%
O=c1c2sc3ncccc3c2ncn1-c1ccccc1	96%

For every item in the list below, what is its measured growth at 1 µM?
1. Nc1c(C(=O)Nc2cccc(Cl)c2)sc2nc3c(cc12)CCCC3
2. COc1ccc(NC(=O)c2sc3nc4c(cc3c2N)CCCC4)cc1
3. Cc1ccccc1NC(=O)c1sc2nc3c(cc2c1N)CCCCC3
4. CCc1ccccc1NC(=O)c1sc2nc3c(cc2c1N)CCCC3
5. Cc1ccccc1NC(=O)c1sc2nc3c(cc2c1N)CCCC3
6. COc1ccc(NC(=O)c2sc3nc4c(cc3c2N)CCCCC4)cc1OC
7. Nc1c(C(=O)Nc2cccc(F)c2)sc2nc3c(cc12)CCCCC3
8. Nc1c(C(=O)Nc2ccccc2)sc2nc3c(cc12)CCCCC3

Marked response:
["80%", "99%", "66%", "86%", "84%", "98%", "29%", "6%"]

For every item in the list below, what is its measured growth at 1 µM?
1. COc1cccc(NC(=O)c2sc3nc4c(cc3c2N)CCCCC4)c1
2. Nc1c(C(=O)Nc2ccccc2C(F)(F)F)sc2nc3c(cc12)CCCCC3
3. Cc1cccc(NC(=O)c2sc3nc4c(cc3c2N)CCCCC4)c1C
4. Cc1cc(C)c(NC(=O)c2sc3nc4c(cc3c2N)CCCC4)c(C)c1
5. Cc1ccc2cc3c(N)c(C(=O)Nc4ccccc4[N+](=O)[O-])sc3nc2c1
6. CCc1cccc(C)c1NC(=O)c1sc2nc3c(cc2c1N)CCCC3

Marked response:
1. 6%
2. 112%
3. 6%
4. 101%
5. 102%
6. 96%

====

tested on: MDA-MB-468; test: Antiproliferative activity against human MDA-MB-468 cells assessed as cell growth at 1 uM incubated for 3 days by 3H-thymidine incorporation assay relative to control; assay type: functional; details: read-out: Activity
quantity-kind: growth at 1 µM (%)
Numbers only, in %.

smiles-text	system	growth at 1 µM, %
Cc1ccccc1NC(=O)c1sc2nc3c(cc2c1N)CCCCC3	MDA-MB-468	25

For every item in the list below, what is its measured growth at 1 µM?
1. Nc1c(C(=O)Nc2cccc(F)c2)sc2nc3c(cc12)CCCC3
2. Cc1ccccc1NC(=O)c1sc2nc3c(cc2c1N)CCCC3
3. Nc1c(C(=O)Nc2cccc([N+](=O)[O-])c2)sc2nc3c(cc12)CCCC3
4. Nc1c(C(=O)Nc2cccc3ccccc23)sc2nc3c(cc12)CCCC3

Marked response:
11
53
44
8

For every item in the list below, what is its measured growth at 1 µM?
1. Nc1c(C(=O)Nc2ccc(F)cc2)sc2nc3c(cc12)CCCCCC3
2. Nc1c(C(=O)Nc2ccccc2F)sc2nc3c(cc12)CCCC3

Marked response:
[65, 48]
